target: MMP-2 (Homo sapiens); construct: made in house; host or cells: MMP-2-transfected p2AHT2 cells; test: In vitro MMP inhibition, Ki determination (fluorogenic substrate II); type: biochemical; conditions: value not in parenthesis; read-out: MMP-2 Ki
Sequence (P08253 110-660): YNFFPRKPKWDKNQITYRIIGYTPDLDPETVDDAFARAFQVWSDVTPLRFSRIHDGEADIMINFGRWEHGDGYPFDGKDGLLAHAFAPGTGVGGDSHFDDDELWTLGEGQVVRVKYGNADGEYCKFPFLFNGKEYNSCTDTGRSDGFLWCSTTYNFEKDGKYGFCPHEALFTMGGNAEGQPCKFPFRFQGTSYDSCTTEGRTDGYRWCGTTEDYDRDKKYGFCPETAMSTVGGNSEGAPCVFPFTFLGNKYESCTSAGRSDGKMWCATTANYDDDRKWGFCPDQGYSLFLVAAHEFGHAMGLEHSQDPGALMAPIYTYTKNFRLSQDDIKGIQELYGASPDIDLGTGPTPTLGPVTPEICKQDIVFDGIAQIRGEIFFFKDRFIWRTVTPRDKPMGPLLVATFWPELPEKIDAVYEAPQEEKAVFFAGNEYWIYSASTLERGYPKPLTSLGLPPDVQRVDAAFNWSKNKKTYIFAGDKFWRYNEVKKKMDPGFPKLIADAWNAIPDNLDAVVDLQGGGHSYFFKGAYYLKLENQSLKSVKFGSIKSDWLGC
The entries below come with measured Ki values attached.
Numeric only. Scale: nM

Answered cases to consult:
* C=CCCOC(=O)N1CCC(C(=O)NO)(S(=O)(=O)N2CCN(c3ccc(OCCCC)cc3)CC2)CC1 | 1.64
* CCCCOc1ccc(N2CCN(S(=O)(=O)C3(C(=O)NO)CCOCC3)CC2)c(F)c1 | 1.68
* O=C(NO)C1(S(=O)(=O)N2CCN(c3ccc(OCCCCF)cc3)CC2)CCOCC1 | 0.49
* CCCCCc1ccc(N2CCN(S(=O)(=O)C3(C(=O)NO)CCN(C(C)=O)CC3)CC2)cc1 | 0.54
* CCCCOc1ccc(N2CCN(S(=O)(=O)C3(C(=O)NO)CCN(c4ccc5c(c4)OCO5)CC3)CC2)cc1 | 8.53
* O=C(NO)C1(S(=O)(=O)N2CCN(c3ccc(-c4ccccc4)cc3)CC2)CCOCC1 | 0.19
* CCc1ccc(N2CCN(S(=O)(=O)C3(C(=O)NO)CCOCC3)CC2)nc1 [Example 137] | 0.37
* CCCCOc1ccc(N2CCN(S(=O)(=O)C3(C(=O)NO)CCN(C(=O)c4cc5ccccc5o4)CC3)CC2)cc1 | 6.02

Input: Look up Ki of "Cc1ccc(-c2ccc(N3CCN(S(=O)(=O)C4(C(=O)NO)CCOCC4)CC3)cc2)cc1" and report it.
Output: 2.02

Input: Supply reported Ki belonging to this molecule: "COCCN1CCC(C(=O)NO)(S(=O)(=O)N2CCN(c3ccc(OCC(F)(F)F)cc3)CC2)CC1"
Output: 1.19

Input: Give Ki for the following molecule: O=C(NO)C1(S(=O)(=O)N2CCN(c3ccc(OCCCC(F)(F)F)cc3F)CC2)CCOCC1 [Example 81]
Output: 0.407

Input: Indicate its recorded Ki; the molecule in question is O=C(NO)C1(S(=O)(=O)N2CCN(c3ccc(OCCCC(F)(F)F)cc3F)CC2)CCOCC1 [Example 117]
Output: 2.58

Input: Return reported Ki. Input molecule: "CCCCOc1ccc(N2CCN(S(=O)(=O)C3(C(=O)NO)CCN(CCOC)CC3)CC2)cn1"
Output: 28.6

###

Reported Ki is given for each of the following compounds.
molecular target: MMP-9 (Homo sapiens); construct: made in house; host or cells: MMP-9-transfected HT1080 cells (spent media); assay: In vitro MMP inhibition, Ki determination (fluorogenic substrate II); assay type: biochemical; conditions: value not in parenthesis
Return type: number; implicit unit nM.

Record excerpt, results attached:
* CCCCOc1ccc(N2CCN(S(=O)(=O)C3(C(=O)NO)CCOCC3)CC2)c(F)c1 | 2.15
* O=C(NO)C1(S(=O)(=O)N2CCN(c3cccc(C(F)(F)F)c3)CC2)CCOCC1 | 249
* CCCCCc1cnc(N2CCN(S(=O)(=O)C3(C(=O)NO)CCOCC3)CC2)cn1 | 0.46

Input: Could you please provide reported Ki for "CCCCOc1ccc(N2CCN(S(=O)(=O)C3(C(=O)NO)CCOCC3)CC2)nc1" ? Thanks!
Output: 0.3

Input: Fill in reported Ki for this entry: "O=C(NO)C1(S(=O)(=O)N2CCN(c3ccc(-c4ccc(F)cc4)cc3)CC2)CCOCC1"
Output: 0.7

###

Target: MMP-1 (Homo sapiens, UniProt P03956)
Construct: made in house; host or cells: MMP-1-transfected HT-1080 cells (spent media)
Sequence (P03956 100-469): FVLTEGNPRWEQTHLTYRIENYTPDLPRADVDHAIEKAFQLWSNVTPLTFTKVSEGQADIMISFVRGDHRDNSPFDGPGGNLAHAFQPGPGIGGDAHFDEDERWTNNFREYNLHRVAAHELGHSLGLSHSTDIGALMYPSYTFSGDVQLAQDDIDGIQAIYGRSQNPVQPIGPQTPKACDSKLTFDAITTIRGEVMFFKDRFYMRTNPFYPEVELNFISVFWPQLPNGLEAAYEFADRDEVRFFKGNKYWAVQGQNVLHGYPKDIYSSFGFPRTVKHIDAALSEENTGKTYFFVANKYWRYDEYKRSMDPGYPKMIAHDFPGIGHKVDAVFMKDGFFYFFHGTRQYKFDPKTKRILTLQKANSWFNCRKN
Experiment: MMP-1 inhibition (in vitro Ki)
Assay type: biochemical
Details: Table 9; read-out: MMP-1 Ki (IC-50)
Param label: returns MET when Ki < 4 µM, returns NOT MET otherwise, including exact equality.

Completed entries (count: 6):
• CCN(C(=O)CCCC1CCN(S(=O)(=O)C2(C(=O)NO)CCOCC2)CC1)c1ccccc1 = NOT MET
• O=C(NO)C1(S(=O)(=O)N2CCC(c3ccc(CCC(F)(F)C(F)(F)F)cn3)CC2)CCN(c2ccc(Cl)cc2)CC1 = NOT MET
• O=C(NO)C1(S(=O)(=O)N2CCC(c3ccc(CCC(F)(F)C(F)(F)F)cn3)CC2)CCC1 = MET
• CN(C(=O)CCCN1CCN(S(=O)(=O)C2(C(=O)NO)CCOCC2)CC1)C1CCCCC1 = NOT MET
• O=C(NO)C1(S(=O)(=O)N2CCC(c3ccc(CCC(F)(F)C(F)(F)F)cn3)CC2)Cc2ccccc2C1 = NOT MET
• O=C(NO)C(CC1CC1)(CC1CC1)S(=O)(=O)N1CCC(c2ccc(CCC(F)(F)F)cn2)CC1 = NOT MET

Now look at this one.
Input: Please let me know if "COCCN1CCC(C(=O)NO)(S(=O)(=O)N2CCC(c3ccc(CCC(F)(F)C(F)(F)F)cn3)CC2)CC1" shows Ki below 4 µM.
Output: NOT MET

###

biological target: MMP-13 (Homo sapiens, UniProt P45452); construct: made in house; host or cells: baculovirus / insect cells; test: In vitro MMP inhibition, Ki determination (fluorogenic substrate II); format: biochemical; details: value outside parentheses; read-out: MMP-13 Ki
In this section we review reported Ki values for a set of compounds.
Kindly provide the numeric value in nM only, without the unit symbol.

Recorded Ki, per entry:
- O=C(O)c1ccc(N2CCN(S(=O)(=O)C3(C(=O)NO)CCOCC3)CC2)cc1 [Example 352]: 3640
- O=C(NO)C1(S(=O)(=O)N2CCN(c3ncc(-c4ccc(Cl)cc4)s3)CC2)CCOCC1 [Example 343]: 0.167
- O=C(NO)C1(S(=O)(=O)N2CCC(c3ccc(N4CCCC4)cn3)CC2)CCOCC1 [Example 408]: 11

API: the following record is the query input.
Input: Determine from records and report Ki for Cc1ccccc1-c1cnc(N2CCN(S(=O)(=O)C3(C(=O)NO)CCOCC3)CC2)s1 [Example 348]
Output: 2.99

###

Quick reference: pKi of the listed items.
biological target: MMP-14 (Homo sapiens, UniProt P50281); construct: The catalytic domain enzyme was expressed in E. coli inclusion bodies, solubilized in urea; made in house; assay: In vitro MMP inhibition, Ki determination (fluorogenic substrate II); assay type: biochemical; settings: value outside parentheses; read-out: MMP-14 Ki
pKi: −log10 of the molar value.

Some molecules with known pKi results, for comparison:
* CCCCOc1ccc(N2CCN(S(=O)(=O)C3(C(=O)NO)CCN(C(=O)CO)CC3)CC2)cc1 | 5.84
* CCCCOc1ccc(N2CCN(S(=O)(=O)C3(C(=O)NO)CCNCC3)CC2)cc1F | < 5.00

Input: Indicate the recorded pKi value for this molecule: "O=C(NO)C1(S(=O)(=O)N2CCN(c3cnn(-c4ccccc4)c(=O)c3)CC2)CCOCC1"
Output: < 5.00

###

target: MMP-13 (Homo sapiens, UniProt P45452); construct: made in house; host or cells: baculovirus / insect cells; test: In vitro MMP inhibition, Ki determination (fluorogenic substrate II); type: biochemical; settings: value outside parentheses; read-out: MMP-13 Ki
Measurement type: pKi
The read-out pKi is expressed as -log10 of concentration in moles per litre.

* O=C(NO)C1(S(=O)(=O)N2CCC(c3ccc(OCC(F)(F)C(F)(F)F)cc3)CC2)CCOCC1 [Example 330] | 9.04

Input: Answer with the recorded pKi of Cc1cc(N2CCN(S(=O)(=O)C3(C(=O)NO)CCOCC3)CC2)ccc1OC(C)C [Example 299] only.
Output: 8.52

###

target: MMP-9 (Homo sapiens, UniProt P14780); construct: made in house; host or cells: MMP-9-transfected HT1080 cells (spent media); assay: In vitro MMP inhibition, Ki determination (fluorogenic substrate II); assay type: biochemical; settings: value outside parentheses
Sequence (P14780 107-707 limits assumed): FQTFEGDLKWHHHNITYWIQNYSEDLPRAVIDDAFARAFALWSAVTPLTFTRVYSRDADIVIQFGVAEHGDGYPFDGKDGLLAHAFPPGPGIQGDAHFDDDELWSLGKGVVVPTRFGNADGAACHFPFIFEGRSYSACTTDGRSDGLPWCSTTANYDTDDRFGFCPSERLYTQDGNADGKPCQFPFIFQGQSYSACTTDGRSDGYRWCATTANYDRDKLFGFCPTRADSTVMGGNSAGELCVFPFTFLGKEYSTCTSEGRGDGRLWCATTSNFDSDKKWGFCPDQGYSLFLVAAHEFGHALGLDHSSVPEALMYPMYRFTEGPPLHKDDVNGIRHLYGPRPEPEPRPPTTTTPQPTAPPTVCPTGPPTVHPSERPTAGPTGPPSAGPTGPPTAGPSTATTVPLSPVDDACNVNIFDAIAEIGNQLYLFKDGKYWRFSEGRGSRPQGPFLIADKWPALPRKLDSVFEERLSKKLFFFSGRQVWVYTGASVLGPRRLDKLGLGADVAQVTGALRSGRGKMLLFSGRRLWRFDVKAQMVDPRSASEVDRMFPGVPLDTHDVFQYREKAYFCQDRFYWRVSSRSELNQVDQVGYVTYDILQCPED
Readings of Ki for the listed compounds
Could you give me the number in nM? Just the number is fine.

- CCC(F)(F)CCc1ccc(C2CCN(S(=O)(=O)C3(C(=O)NO)CCOCC3)CC2)cn1 [Example 411]: 2.04

Input: Write Ki of CCCCc1ccc(C2CCN(S(=O)(=O)C3(C(=O)NO)CCN(CCOC)CC3)CC2)nc1 [Example 397] ; system used: MMP-9 (Homo sapiens, UniProt P14780)
Output: 0.09

Input: Please respond with reported Ki (system MMP-9 (Homo sapiens, UniProt P14780)) for CCCCOc1ccc(N2CCN(S(=O)(=O)C3(C(=O)NO)CCN(C(=O)CC(F)(F)F)CC3)CC2)cc1 [Example 265] .
Output: 2.14
